Examples of compounds with documented normalized growth follow.
Test: chemical genetic growth profiling, strain panel (AID 1159580);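 also: tested at 20 µM; growth read once vehicle control cultures reached saturation at 30 °C; 1 = growth at the plate median or of vehicle wells; lower values mean less growth of the strain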
Conditions: S. cerevisiae deletion strains, growth OD, locus YBR279W, strain paf1, stronger effect = lower value
Screen size: about 5,500 compounds; about 2,000 (36%) were called active. Another 18% or so got no clear call; they are omitted. This is one part of the list.
OUTCOME MEASURE: normalized growth

[[record]]
compound = "CC/C(=C(/CC)c1ccc(O)cc1)c1ccc(O)cc1"
reported_result = 0.961

[[record]]
compound = "CCc1cc(C(N)=S)ccn1"
reported_result = 1

[[record]]
compound = "CN(C)c1ccc2nc3ccc(=[N+](C)C)cc-3sc2c1"
reported_result = 1.07

[[record]]
compound = "CCC1OC(=O)[C@H](C)C(=O)[C@H](C)[C@@H](OC2O[C@H](C)C[C@H](N(C)C)[C@H]2O)[C@](C)(OC)C2(CCCn3cnc(-c4cccnc4)c3)C[C@@H](C)C(=O)[C@H](C)[C@H]3N(C2)C(=O)O[C@]13C (stereo not given in full)"
reported_result = 0.996

[[record]]
compound = "CCC(c1ccc(O)cc1)C(CC)c1ccc(O)cc1 (stereo not given)"
reported_result = 0.95

